# Test system: NCI-H1688 (Small Cell Lung Carcinoma)
# ASSAY_TEXT: Bliss excess, mean over the matrix (fraction); higher = more synergy;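 note: after 72 h of two-drug dosing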
Outcome: label 1 for Bliss excess of at least -0.003; label 0 for anything lower.

C[C@@H](c1ccc2nccn2c1)n1nnc2ncc(-c3cnn(C)c3)nc21 [Savolitinib] + CN(CC[C@H](CSC1=CC=CC=C1)NC2=C(C=C(C=C2)S(=O)(=O)NC(=O)C3=CC=C(C=C3)N4CCC(CC4)[C@H](C5=CC=CC=C5C6=CC=C(C=C6)Cl)O)S(=O)(=O)C(F)(F)F)CCO [AZD4320] (first compound max 1 µM, 7x7, partner max 1 µM) :: label 1
COc1cc2ncnc(Nc3ccc(F)c(Cl)c3)c2cc1OCCCN1CCOCC1 [Gefitinib] + CC(C)n1c(=O)n(C)c2cnc3cc(F)c(-c4ccc(OCCCN5CCCCC5)nc4)cc3c21 [AZD1390] (first compound max 10 µM, 7x7, partner max 0.3 µM) :: label 0
CN(C)CCCOc1ccc(-c2ccc3ncc4c(c3c2)n(C2CCOCC2)c(=O)n4C)cn1 [AZD0156] + C=CCn1c(=O)c2cnc(Nc3ccc(N4CCN(C)CC4)cc3)nc2n1-c1cccc(C(C)(C)O)n1 [AZD1775] (first compound max 1 µM, partner max 1 µM) :: label 0
Cn1cnc2c(F)c(Nc3ccc(Br)cc3Cl)c(C(=O)NOCCO)cc21 [Selumetinib] + CCN(CCO)CCCOc1ccc2c(Nc3cc(CC(=O)Nc4cccc(F)c4)[nH]n3)ncnc2c1 [AZD2811] (first compound max 10 µM, 7x7, partner max 1 µM) :: label 0
Cc1c2c(nn1C)CSCc1cc(n(C)n1)CSc1cc(c3ccccc3c1)OCCCc1c(C(=O)O)n(C)c3c-2c(Cl)ccc13 [AZD5991] + C1CN(CCC1(C(=O)N[C@@H](CCO)C2=CC=C(C=C2)Cl)N)C3=NC=NC4=C3C=CN4 [Capivasertib] (first compound max 1 µM, 7x7, partner max 3 µM) :: label 1
CN(CCO)CC[C@H](CSc1ccccc1)Nc1ccc(S(=O)(=O)NC(=O)c2ccc(N3CCC([C@@H](O)c4ccccc4-c4ccc(Cl)cc4)CC3)cc2)cc1S(=O)(=O)C(F)(F)F [AZD4320] + C[C@@H](Nc1cc(F)cc(F)c1)c1cc(C(=O)N(C)C)cc2c(=O)cc(N3CCOCC3)oc12 [AZD8186] (first compound max 1 µM, 7x7, partner max 3 µM) :: label 1
Cc1nc(Nc2ncc(C(=O)Nc3c(C)cccc3Cl)s2)cc(N2CCN(CCO)CC2)n1 [Dasatinib] + CC(=O)Nc1cccc(-n2c(=O)n(C3CC3)c(=O)c3c(Nc4ccc(I)cc4F)n(C)c(=O)c(C)c32)c1 [Trametinib] (first compound max 2 µM, 7x7, partner max 1 µM) :: label 0

---

# Test system: PA-TU-8902 (Pancreatic Carcinoma)
# ASSAY_TEXT: Bliss excess, mean over the matrix (fraction); higher = more synergy
RESULT_TYPE: Bliss excess

COc1cc2ncnc(Nc3ccc(F)c(Cl)c3)c2cc1OCCCN1CCOCC1 [Gefitinib] + CC(C)n1c(=O)n(C)c2cnc3cc(F)c(-c4ccc(OCCCN5CCCCC5)nc4)cc3c21 [AZD1390] (first compound max 10 µM, 7x7, partner max 0.3 µM) :: -0.0693
CCN(CCO)CCCOc1ccc2c(Nc3cc(CC(=O)Nc4cccc(F)c4)[nH]n3)ncnc2c1 [AZD2811] + O=C(c1cc(Cc2n[nH]c(=O)c3ccccc23)ccc1F)N1CCN(C(=O)C2CC2)CC1 [Olaparib] (first compound max 1 µM, 7x7, partner max 10 µM) :: 0.0081
